- target: Human CB1R (Cannabinoid receptor 1) (Homo sapiens, UniProt P21554)
- Sequence (P21554 whole entry): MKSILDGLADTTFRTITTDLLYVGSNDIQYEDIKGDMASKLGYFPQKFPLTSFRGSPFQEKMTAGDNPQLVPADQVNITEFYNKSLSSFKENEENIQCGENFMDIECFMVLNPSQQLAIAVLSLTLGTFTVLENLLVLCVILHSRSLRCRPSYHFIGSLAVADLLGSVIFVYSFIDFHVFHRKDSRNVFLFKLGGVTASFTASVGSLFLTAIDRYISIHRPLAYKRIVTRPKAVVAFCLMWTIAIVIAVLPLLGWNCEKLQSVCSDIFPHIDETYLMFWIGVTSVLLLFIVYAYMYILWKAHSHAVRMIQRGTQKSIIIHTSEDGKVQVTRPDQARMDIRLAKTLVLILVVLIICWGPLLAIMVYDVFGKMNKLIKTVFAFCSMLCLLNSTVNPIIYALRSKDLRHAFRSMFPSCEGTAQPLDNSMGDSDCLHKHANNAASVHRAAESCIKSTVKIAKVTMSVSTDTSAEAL
- experimentalProtocol: CB-1 in vitro cAMP (HTRF) functional assay
- conditionDescription: mean where tested more than once
// pEC50 lookup, one value per entry
Entry type: numeric. Quantity: pEC50, the -log10 of concentration in molar units.

cpdSmiles: CCOC(=O)COc1cc(C(c2ccc(Cl)cc2)c2ccc(Cl)cc2)cc2c(NC3CCN(S(=O)(=O)C(F)(F)F)CC3)ccnc12
target: Human CB1R (Cannabinoid receptor 1) (Homo sapiens, UniProt P21554)
pEC50: 6.90
//
cpdSmiles: O=C(c1ccc(Nc2cc(=O)[nH]c3ccc(C(c4ccc(Cl)cc4)c4ccc(Cl)cc4)cc23)cc1F)N1CCCC1
target: Human CB1R (Cannabinoid receptor 1) (Homo sapiens, UniProt P21554)
pEC50: 6.64
//
cpdSmiles: O=C(O)COc1cc(C(c2ccc(Cl)cc2)c2ccc(Cl)cc2)cc2c(NC3CCN(S(=O)(=O)C(F)(F)F)CC3)ccnc12
target: Human CB1R (Cannabinoid receptor 1) (Homo sapiens, UniProt P21554)
pEC50: 5.31

Now let's try a different one.
State its pEC50: O=c1cc(Nc2ccc(C(F)(F)F)cc2)c2cc(C(c3ccc(Cl)cc3)c3ccc(Cl)cc3)cc(Br)c2[nH]1
7.82

---

- target: hCB2-HEK293 membranes (Homo sapiens, UniProt P34972)
- Sequence (P34972 whole entry): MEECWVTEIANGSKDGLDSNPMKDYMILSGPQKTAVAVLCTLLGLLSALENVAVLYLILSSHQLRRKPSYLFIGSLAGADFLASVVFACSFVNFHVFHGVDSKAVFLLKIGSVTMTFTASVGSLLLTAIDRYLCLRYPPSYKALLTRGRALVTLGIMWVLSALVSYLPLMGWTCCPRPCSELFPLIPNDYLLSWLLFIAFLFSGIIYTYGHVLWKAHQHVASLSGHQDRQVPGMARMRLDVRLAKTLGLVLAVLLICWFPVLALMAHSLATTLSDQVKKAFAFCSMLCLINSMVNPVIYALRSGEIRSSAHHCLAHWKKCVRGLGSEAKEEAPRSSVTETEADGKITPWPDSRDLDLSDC
measuredQuantity: IC50

Recall the reported IC50 of O=c1cc(/C=C/c2ccc(C(F)(F)F)cc2)c2cc(C(c3ccc(Cl)cc3)c3cccs3)ccc2[nH]1 (stereo not shown) when tested on hCB2-HEK293 membranes (Homo sapiens, UniProt P34972).
> 5 µM

---

Read-out record for hCB1-CHO-K1 membranes (Homo sapiens): pIC50
Entry type: numeric. Quantity: pIC50, the -log10 of concentration in molar units.

Here is how some compounds turned out for pIC50.
compound: OC(c1ccc(Cl)cc1)(c1ccc(Cl)cc1)c1ccc2nccc(/C=C/c3ccccc3)c2c1
target: hCB1-CHO-K1 membranes (Homo sapiens)
pIC50: 7.28
--
compound: O=c1cc(NC2CCN(S(=O)(=O)C(F)(F)F)CC2)c2cc(C(c3ccc(Cl)cc3)c3ccc(Cl)cc3)ccc2[nH]1
target: hCB1-CHO-K1 membranes (Homo sapiens)
pIC50: 8.92
--
compound: Clc1ccc(C(c2ccc3nccc(/C=C/c4ccccc4)c3c2)c2cccs2)cc1 (stereo not shown)
target: hCB1-CHO-K1 membranes (Homo sapiens)
pIC50: 7.01
--
compound: OC(c1ccc(Cl)cc1)(c1ccsc1)c1ccc2nccc(/C=C/c3ccccc3)c2c1 (stereo not shown)
target: hCB1-CHO-K1 membranes (Homo sapiens)
pIC50: 6.65
--
compound: O=c1cc(/C=C/c2cccc(F)c2)c2cc(C(c3ccc(Cl)cc3)c3ccsc3)ccc2[nH]1 (stereo not shown)
target: hCB1-CHO-K1 membranes (Homo sapiens)
pIC50: 7.66

State its pIC50: O=c1cc(/C=C/c2ccccc2)c2cc(C(c3ccc(Cl)cc3)c3nccs3)ccc2[nH]1 (stereo not shown)
7.46

State its pIC50: OC(c1ccc(Cl)cc1)(c1ccc2nccc(/C=C/c3ccccc3)c2c1)c1cccs1 (stereo not shown)
7.00

State its pIC50: O=c1cc(/C=C/c2ccc(C(F)(F)F)cc2)c2cc(C(c3ccc(Cl)cc3)c3cccs3)ccc2[nH]1 (stereo not shown)
7.82
